The measured values listed here are drawn from paper PMC4456664.

Target: PYL10 (Arabidopsis thaliana)
Sequence (Q8H1R0 1-183): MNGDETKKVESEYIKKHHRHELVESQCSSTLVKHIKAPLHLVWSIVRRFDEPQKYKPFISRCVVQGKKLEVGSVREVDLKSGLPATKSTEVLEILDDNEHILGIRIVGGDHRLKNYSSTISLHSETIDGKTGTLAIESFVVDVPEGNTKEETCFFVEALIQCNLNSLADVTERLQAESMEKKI
parameter: pKd
Numbers only, as −log10 of the molar value.

Give pKd only, for CC1=CC(=O)CC(C)(C)[C@@]1(O)/C=C/C(C)=C\C(=O)O [abscisic acid] , using PYL10 (Arabidopsis thaliana) data.
4.18
